tested on: UACC-257; assay: NCI SRB assay; assay type: cell-based, human; details: UACC-257, 5-dose; read-out: LC50 (the source's name)
endpoint_label: CC50

Enter measured CC50, system UACC-257, for the compound shown: `Cc1ccc(-c2nc(Nc3ccccc3C(=O)O)c3ccccc3n2)cc1`
< 100 µM

* * *

test system: 786-0; test: NCI SRB assay; assay type: cell-based, human; conditions: 786-0, 10 μM
endpoint_label: GI% (%)
Respond with the bare value in %.

Cc1cccc(-c2nc(Nc3ccc(C(=O)O)cc3)c3ccccc3n2)c1 ... 29

Assign GI% to the following record: `Cc1ccc(-c2nc(Nc3ccccc3C(=O)O)c3ccccc3n2)cc1`
81

Assign GI% to the following record: `COc1ccc(-c2nc(Nc3ccccc3C(=O)O)c3ccccc3n2)cc1`
48

Assign GI% to the following record: `Cc1ccc(-c2nc(Nc3cccc(C(=O)O)c3)c3ccccc3n2)cc1`
24

Assign GI% to the following record: `Cc1cccc(-c2nc(Nc3ccccc3C(=O)O)c3ccccc3n2)c1`
75

* * *

system: SF-268; test: NCI SRB assay; format: cell-based, human; details: SF-268, 1.00E-5 Molar
Item-by-item account of Growth Percent
Remember to follow the number with its unit.

# example entries with known answers
Cc1cccc(-c2nc(Nc3ccccc3C(=O)O)c3ccccc3n2)c1 ... 37.50%
Cc1ccc(-c2nc(Nc3ccc(C(=O)O)cc3)c3ccccc3n2)cc1 ... 70.34%
Cc1ccc(-c2nc(Nc3cccc(C(=O)O)c3)c3ccccc3n2)cc1 ... 69.32%

Assign Growth Percent to the following record: `COc1ccc(-c2nc(Nc3ccccc3C(=O)O)c3ccccc3n2)cc1`
56.93%

Assign Growth Percent to the following record: `Cc1ccc(-c2nc(Nc3ccccc3C(=O)O)c3ccccc3n2)cc1`
11.24%

Assign Growth Percent to the following record: `Cc1cccc(-c2nc(Nc3ccc(C(=O)O)cc3)c3ccccc3n2)c1`
62.51%

* * *

system: MDA-MB-468; assay: NCI SRB assay; assay type: cell-based, human; details: MDA-MB-468, 5-dose; read-out: LC50 (the source's name)
endpoint_label: CC50

Assign CC50 to the following record: `Cc1ccc(-c2nc(Nc3ccccc3C(=O)O)c3ccccc3n2)cc1`
< 100 µM

* * *

target: hCA XII (Homo sapiens); construct: made in house; test: stopped flow CO2 hydrase assay; format: biochemical; settings: KI hCA II / KI hCA XII
Sequence (O43570 25-354): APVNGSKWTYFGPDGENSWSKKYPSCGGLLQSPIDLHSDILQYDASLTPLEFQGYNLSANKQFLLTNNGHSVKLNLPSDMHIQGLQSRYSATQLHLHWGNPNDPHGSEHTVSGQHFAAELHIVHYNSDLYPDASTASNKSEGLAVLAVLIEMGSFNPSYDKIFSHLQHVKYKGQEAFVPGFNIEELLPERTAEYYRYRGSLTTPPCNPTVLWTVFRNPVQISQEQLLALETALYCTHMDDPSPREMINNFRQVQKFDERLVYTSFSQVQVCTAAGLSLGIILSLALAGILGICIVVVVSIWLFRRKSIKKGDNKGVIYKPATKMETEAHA
Param threshold (20) applies to Selectivity ratio II/XII; output Condition met when value >= threshold, Condition not met when value < threshold.

Below are worked cases with known answers.
Cc1ccc(-c2nc(Nc3ccccc3C(=O)O)c3ccccc3n2)cc1 ... Condition not met
Cc1ccc(-c2nc(Nc3cccc(C(=O)O)c3)c3ccccc3n2)cc1 ... Condition met
COc1ccc(-c2nc(Nc3ccccc3C(=O)O)c3ccccc3n2)cc1 ... Condition not met
Cc1cccc(-c2nc(Nc3ccc(C(=O)O)cc3)c3ccccc3n2)c1 ... Condition not met
COc1ccc(-c2nc(Nc3ccc(C(=O)O)cc3)c3ccccc3n2)cc1 ... Condition not met

I'd appreciate it if you could say whether `Cc1cccc(-c2nc(Nc3cccc(C(=O)O)c3)c3ccccc3n2)c1` has Selectivity ratio II/XII at least equal to 20.
Condition not met

I'd appreciate it if you could say whether `COc1ccc(-c2nc(Nc3cccc(C(=O)O)c3)c3ccccc3n2)cc1` has Selectivity ratio II/XII at least equal to 20.
Condition met

I'd appreciate it if you could say whether `Cc1cccc(-c2nc(Nc3ccccc3C(=O)O)c3ccccc3n2)c1` has Selectivity ratio II/XII at least equal to 20.
Condition not met

I'd appreciate it if you could say whether `Cc1ccc(-c2nc(Nc3ccc(C(=O)O)cc3)c3ccccc3n2)cc1` has Selectivity ratio II/XII at least equal to 20.
Condition not met

* * *

Item-by-item account of Selectivity ratio II/IX
target: hCA IX (Homo sapiens); construct: made in house; test: stopped flow CO2 hydrase assay; format: biochemical; details: KI hCA II / KI hCA IX
Enter the number alone.

COc1ccc(-c2nc(Nc3cccc(C(=O)O)c3)c3ccccc3n2)cc1 [7c] ... 2.72
COc1ccc(-c2nc(Nc3ccc(C(=O)O)cc3)c3ccccc3n2)cc1 [8c] ... 1.02
Cc1ccc(-c2nc(Nc3ccccc3C(=O)O)c3ccccc3n2)cc1 [6b] ... 1.40

Could you now look at the following compound, please?
Enter measured Selectivity ratio II/IX, system hCA IX (Homo sapiens), for the compound shown: Cc1ccc(-c2nc(Nc3cccc(C(=O)O)c3)c3ccccc3n2)cc1 [7b]
1.72

* * *

Item-by-item account of Growth Percent
tested on: EKVX; assay: NCI SRB assay; type: cell-based, human; settings: 1.00E-5 Molar
Respond with the bare value in %.

# example entries with known answers
Cc1cccc(-c2nc(Nc3ccccc3C(=O)O)c3ccccc3n2)c1 ... 20.98
Cc1cccc(-c2nc(Nc3ccc(C(=O)O)cc3)c3ccccc3n2)c1 ... 82.93
Cc1ccc(-c2nc(Nc3ccccc3C(=O)O)c3ccccc3n2)cc1 ... 13.07
Cc1ccc(-c2nc(Nc3ccc(C(=O)O)cc3)c3ccccc3n2)cc1 ... 72.41
COc1ccc(-c2nc(Nc3ccccc3C(=O)O)c3ccccc3n2)cc1 ... 33.92

Could you now look at the following molecule, please?
Assign Growth Percent to the following record: `Cc1ccc(-c2nc(Nc3cccc(C(=O)O)c3)c3ccccc3n2)cc1`
58.70

* * *

Item-by-item account of pKi
molecular target: hCA II (Homo sapiens, UniProt P00918)
pKi here is simply -log10 of the concentration when that concentration is written in mol/L.

Cc1cccc(-c2nc(Nc3ccc(C(=O)O)cc3)c3ccccc3n2)c1 ... 5.03
Cc1cccc(-c2nc(Nc3ccccc3C(=O)O)c3ccccc3n2)c1 ... 4.07
Cc1ccc(-c2nc(Nc3ccccc3C(=O)O)c3ccccc3n2)cc1 ... 4.32
COc1ccc(-c2nc(Nc3ccccc3C(=O)O)c3ccccc3n2)cc1 ... 4.08
Cc1ccc(-c2nc(Nc3ccc(C(=O)O)cc3)c3ccccc3n2)cc1 ... 5.41

Could you now look at the following compound, please?
Enter measured pKi, system hCA II (Homo sapiens, UniProt P00918), for the compound shown: `Cc1ccc(-c2nc(Nc3cccc(C(=O)O)c3)c3ccccc3n2)cc1`
4.38

* * *

tested on: DU-145; experiment: NCI SRB assay; type: cell-based, human; settings: DU-145, 10 μM
Item-by-item account of GI%
Respond with the bare value in %.

Cc1cccc(-c2nc(Nc3ccccc3C(=O)O)c3ccccc3n2)c1 [6a] ... 50
COc1ccc(-c2nc(Nc3ccccc3C(=O)O)c3ccccc3n2)cc1 [6c] ... 43

Assign GI% to the following record: Cc1ccc(-c2nc(Nc3ccccc3C(=O)O)c3ccccc3n2)cc1 [6b]
81

* * *

tested on: EKVX; assay: NCI SRB assay; assay type: cell-based, human; conditions: 5-dose
endpoint_label: LC50 (concentration killing 50% of cells)

Assign LC50 (concentration killing 50% of cells) to the following record: `Cc1ccc(-c2nc(Nc3ccccc3C(=O)O)c3ccccc3n2)cc1`
< 100 µM

* * *

test system: OVCAR-5; assay: NCI SRB assay; assay type: cell-based, human; settings: OVCAR-5, 1.00E-5 Molar
Exam item: assign condition met to entries whose Growth Percent is below 80% and condition not met to entries at or above 80%. Note that a value of exactly 80% receives condition not met.

Cc1ccc(-c2nc(Nc3ccccc3C(=O)O)c3ccccc3n2)cc1 [6b] ... condition met
Cc1cccc(-c2nc(Nc3ccc(C(=O)O)cc3)c3ccccc3n2)c1 [8a] ... condition not met

Confirm or reject: Growth Percent of COc1ccc(-c2nc(Nc3ccccc3C(=O)O)c3ccccc3n2)cc1 [6c] lies strictly below 80%
condition met

Confirm or reject: Growth Percent of Cc1ccc(-c2nc(Nc3cccc(C(=O)O)c3)c3ccccc3n2)cc1 [7b] lies strictly below 80%
condition not met

Confirm or reject: Growth Percent of Cc1cccc(-c2nc(Nc3ccccc3C(=O)O)c3ccccc3n2)c1 [6a] lies strictly below 80%
condition met

Confirm or reject: Growth Percent of Cc1ccc(-c2nc(Nc3ccc(C(=O)O)cc3)c3ccccc3n2)cc1 [8b] lies strictly below 80%
condition not met

* * *

system: HT29; test: NCI SRB assay; assay type: cell-based, human; conditions: HT29, 1.00E-5 Molar
endpoint_label: Growth Percent (%)
Respond with the bare value in %.

# example entries with known answers
COc1ccc(-c2nc(Nc3ccccc3C(=O)O)c3ccccc3n2)cc1 ... 63.13
Cc1ccc(-c2nc(Nc3cccc(C(=O)O)c3)c3ccccc3n2)cc1 ... 105.90
Cc1ccc(-c2nc(Nc3ccccc3C(=O)O)c3ccccc3n2)cc1 ... 17.79

Assign Growth Percent to the following record: `Cc1cccc(-c2nc(Nc3ccc(C(=O)O)cc3)c3ccccc3n2)c1`
91.72

Assign Growth Percent to the following record: `Cc1ccc(-c2nc(Nc3ccc(C(=O)O)cc3)c3ccccc3n2)cc1`
87.37

Assign Growth Percent to the following record: `Cc1cccc(-c2nc(Nc3ccccc3C(=O)O)c3ccccc3n2)c1`
39.66
